# Target Under Test: Cyno BCMA-Avi-His (cynomolgus, UniProt A0A2K5UD97 2-53)
# Sequence (A0A2K5UD97 entry or part of it): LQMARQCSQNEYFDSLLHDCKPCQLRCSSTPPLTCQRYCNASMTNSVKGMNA
# Protocol Notes: SPR
Readout Type: Kd (nM)
API: value field is a number in nM; no unit string.

Some binders with known Kd results, for comparison:
CA10 Variant 1 (antibody, V domains shown) VH: QVQLVESGGGVVQPGRSLRLSCAASGFTFSNFGMHWVRQAPGRGLEWVAVIWSDETNRYYADSVKGRFTVSRDNVKSTVYLQMNSLISEDTAVYYCARDQQYCSSDSCFTWFDPWGQGTLVTVSS VL: QTVVTQEPSLTVSPGGTVTLTCRSSTGTVTPSNYANWVQQKPDHFFTGLIGDNNSRPPGVPARFSASLIGDKAALTLSGVQPEDEAEYYCALWFGNQWVFGGGTKLTVL	0.732
CA10 Variant 4 (antibody, V domains shown) VH: QVQLVESGGGVVQPGRSLRLSCAASGFTFSNFGMHWVRQAPGRGLEWVAVIWSDETNRYYADSVKGRFTVSRDNVKSTVYLQMNSLISEDTAVYYCARDQQYCSSDSCFTWFDPWGQGTLVTVSS VL: QTVVTQEPSLTVSPGGTVTLTCASSTGAVTPGYYANWVQQKPGQAPRGLIGDNNNKPPWTPARFSGSLLGGKAALTLSGVQPEDEAEYYCALYYGGQWVFGGGTKLTVL	64.2

Here is another binder to look at.
Look up and state reported Kd for CA10 Variant 6 (antibody, V domains shown) VH: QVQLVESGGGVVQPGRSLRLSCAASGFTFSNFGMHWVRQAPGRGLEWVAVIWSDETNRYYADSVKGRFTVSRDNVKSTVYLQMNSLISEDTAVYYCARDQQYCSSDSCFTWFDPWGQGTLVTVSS VL: QTVVTQEPSLTVSPGGTVTLTCASSTGTVTPSNYANWVQQKPGQFPRGLIGDNNSRPPGTPARFSASLLGGKAALTLSGVQPEDEAEYYCALWFGNQWVFGGGTKLTVL
1.18
